Source: PubChem BioAssay (NCI)

test system: BT-549 breast; assay: NCI-60 one-dose screen, 48 h; settings: 10 µM unless noted
Compounds without any hit were thinned out: in the full panel of roughly 83,000, 20% have a hit. The source made the active and inactive calls. How the source made its calls: active means growth percent below 10; inactive means the rest.
Form entry, call: pick from active, inactive

Worked examples follow.
compound	target-under-test	label
Cc1c(C(=O)Nc2ccccc2F)sc2c(=O)[nH]cnc12	BT-549 breast	inactive
CCN(CC)c1ccc(/C=N/NC(=O)C[N+](C)(C)C)cc1	BT-549 breast	inactive
Fc1cc(-c2cnc3nonc3n2)c(Cl)cc1Cl	BT-549 breast	inactive
COc1nccc2c(Sc3ccccc3)nc(N)nc12	BT-549 breast	inactive
CCCCCCCCCCCCCCCCCC(=O)[O][Sn]([CH2]CCC)([CH2]CCC)[CH2]CCC	BT-549 breast	active
CC(C)(C)c1ccc(OC(=O)Nc2ccccc2)cc1	BT-549 breast	inactive
O=C1Nc2ccccc2/C1=C\c1nc(C2CCN(S(=O)(=O)c3ccc(F)cc3)CC2)n2ccccc12	BT-549 breast	active
CNCCCn1c2c(c3ccc(Cl)cc3c1=O)C(=O)c1cc(OC)cnc1-2	BT-549 breast	inactive

Incoming: Name the outcome recorded for COc1cc(C2C(C#N)=C(N)Oc3cc4c(cc32)OCO4)cc2c1OCO2 (stereo not given) in the assay.
Outgoing: inactive

Incoming: Name the outcome recorded for CC(C)(C)[Si](C)(C)OC1[C@@H](O[Si](C)(C)C(C)(C)C)[C@@H](CNC(=O)NC(=O)NC(=O)CCl)O[C@H]1n1cnc2c(NC(=O)Nc3ccccc3)ncnc21 (stereo not given in full) in the assay.
Outgoing: inactive

Incoming: Name the outcome recorded for C=C(C)[C@@H]1CC[C@]2(C(=O)NS(=O)(=O)c3ccccc3)CC[C@]3(C)[C@H](CC[C@@H]4[C@@]5(C)CC[C@H](OC(=O)NS(=O)(=O)c6ccccc6)C(C)(C)[C@@H]5CC[C@]43C)[C@@H]12 in the assay.
Outgoing: active

Incoming: Name the outcome recorded for O=P(O)(O)C(O)(Cc1cccnc1)P(=O)(O)O in the assay.
Outgoing: inactive

Incoming: Name the outcome recorded for S=C(S)Oc1cccc2cccnc12 in the assay.
Outgoing: inactive

Incoming: Name the outcome recorded for CS(=O)(=O)c1ccc(C(=O)Nc2ccc(Cl)c(-c3ccccn3)c2)c(Cl)c1 in the assay.
Outgoing: inactive

Incoming: Name the outcome recorded for CCN(CC)CCNC(=O)n1cc(-c2ccncc2)c(-c2ccc(Cl)c(OC)c2)n1 in the assay.
Outgoing: inactive

Incoming: Name the outcome recorded for COc1ccc(C(=O)N2N=C(c3ccc(F)cc3)CC2c2cn(-c3ccccc3)nc2-c2ccccc2)cc1 (stereo not given) in the assay.
Outgoing: inactive

Incoming: Name the outcome recorded for CCOC(=O)C1OC2(CCCC2)OC1C(=O)OCC (stereo not given) in the assay.
Outgoing: inactive

Incoming: Name the outcome recorded for COc1cc2c(=O)n(CCCN(C)C)c3c4cc[nH]c4ncc3c2cc1OC in the assay.
Outgoing: inactive

Incoming: Name the outcome recorded for C[C@H](NC(=O)c1snnc1C1CC1)c1c(F)cccc1Cl in the assay.
Outgoing: inactive

Incoming: Name the outcome recorded for Cc1ccc(Nc2cccc3ccccc23)cc1 in the assay.
Outgoing: inactive

* * *

test system: HT29 colon; test: NCI-60 one-dose screen, 48 h; details: 10 µM unless noted
About 83,000 compounds went through this panel and 20% of them were active in at least one assay; those are over-represented in the sample as a whole. The source made the active and inactive calls. Rule for the calls: active = growth percent below 10; inactive = the rest.
Form entry, call: pick from active, inactive

Worked examples follow.
compound	target-under-test	label
O=C(/C=C/c1ccccc1Br)c1cccc(OCCCCOc2cccc(C(=O)/C=C/c3ccccc3Br)c2)c1	HT29 colon	inactive
O=C(N/N=C/c1ccc([N+](=O)[O-])cc1)c1ccccc1Nc1ccnc(C(F)(F)F)c1	HT29 colon	inactive
Cc1nn(-c2ccccc2)c2nc3c(nc12)C1=NCCN1C(c1ccc(Cl)cc1)N3 (stereo not given)	HT29 colon	inactive
CN1C(=O)NC(Cc2c[nH]c3c(Cl)cccc23)C1=O (stereo not given)	HT29 colon	inactive
CC(C)=CC[C@@H]1CC2(CC=C(C)C)C(=O)C(OC3(C(=O)c4ccccc4)C(=O)C4(CC=C(C)C)C[C@@H](CC=C(C)C)C(C)(C)C(CC=C(C)C)(C4=O)C3=O)(C(=O)c3ccccc3)C(=O)C(CC=C(C)C)(C2=O)C1(C)C (stereo not given in full)	HT29 colon	active

Incoming: Name the outcome recorded for c1ccc(CCn2cccc2)nc1 in the assay.
Outgoing: inactive

Incoming: Name the outcome recorded for Cc1ccc(NC(=O)c2sc3nc4c(cc3c2N)C(=O)CCC4)cc1Cl in the assay.
Outgoing: inactive

Incoming: Name the outcome recorded for COc1ccc(C(=O)O)cc1.[Ag] in the assay.
Outgoing: inactive

Incoming: Name the outcome recorded for Cc1cccc(N=NC(=S)NNc2cccc(C)c2)c1 in the assay.
Outgoing: inactive
